# procedure-details: small molecules boosting NK-mediated OVCAR3 lysis – imaging, primary NK cells, calcein-AM imaging, primary screen (AID 1508625);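 note: compound given to NK cells 16 h before adding targets at 1.5 to 1 ratio; more negative robust z means stronger NK killing of tumor cells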
# assay-context: OVCAR3 lysis by primary NK cells, at 5 µM; measured here: robust Z-score, single-point normalisation
Give measured z-score for each item. Keep answers brief.
The answer should be written as a number, with no unit following it.

Give its z-score value. Item: NC(C(=O)O)C(O)c1cccc([N+](=O)[O-])c1 (stereo not given)
-0.224

Give its z-score value. Item: `CC(C)NC(=O)CC(=O)NN=C1CCCC1`
-2.58

Give its z-score value. Item: `CCCn1cnc2sc(C(=O)Nc3ccc(Oc4ccc5c(c4)C(=O)N(c4ccc6c(c4)OCO6)C5=O)cc3)c(C)c2c1=O`
-1.8

Give its z-score value. Item: `O=C(Oc1cccc(NC(=O)c2ccccc2Cl)c1)c1ccc(Cl)c(S(=O)(=O)N2CCCCC2)c1`
-1.2

Give its z-score value. Item: CC1(C(=O)NCC2CCCO2)CCC(=O)N1CCc1ccccc1 (stereo not given)
-1.92

* * *

# procedure-details: small molecules boosting NK-mediated OVCAR3 lysis – imaging, primary NK cells, calcein-AM imaging, primary screen (AID 1508625);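 note: compound given to NK cells 16 h before adding targets at 1.5 to 1 ratio; more negative robust z means stronger NK killing of tumor cells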
# assay-context: OVCAR3 lysis by primary NK cells, at 5 µM; measured here: robust Z-score, single-point normalisation
Cut-off -1 on z-score: below means Criterion met, at or above means Criterion not met.

Hello, is z-score of the following molecule strictly smaller than -1? `CCOc1ccc(C(=O)N2CCc3cc(OC)c(OC)cc3C2)cc1`
Criterion not met

Hello, is z-score of the following molecule strictly smaller than -1? `O=c1oc(-c2ccc(Oc3ccc([N+](=O)[O-])cc3)cc2)nc2ccccc12`
Criterion not met

Hello, is z-score of the following molecule strictly smaller than -1? `COC(=O)c1ccc(C=NN2CCN(c3ccccn3)CC2)cc1`
Criterion met

Hello, is z-score of the following molecule strictly smaller than -1? `S=C1CSc2ccccc2N1`
Criterion not met

Hello, is z-score of the following molecule strictly smaller than -1? CCOC(=O)c1sc(N2C(=O)C(=O)C(=C(O)c3ccccc3)C2c2ccc(C(C)(C)C)cc2)nc1C (stereo not given)
Criterion not met

Hello, is z-score of the following molecule strictly smaller than -1? COCCNCC(O)Cn1c2ccccc2c2ccccc21 (stereo not given)
Criterion not met

Hello, is z-score of the following molecule strictly smaller than -1? CN(C)c1ccc(C(=O)N2N=C(c3ccc(Cl)cc3)CC2(O)C(F)(F)F)cc1 (stereo not given)
Criterion met

Hello, is z-score of the following molecule strictly smaller than -1? `FC(F)(F)c1cc(-c2cccs2)nc2nc(=S)[nH]n12`
Criterion not met

Hello, is z-score of the following molecule strictly smaller than -1? `COCCNC(=O)c1ccc2snnc2c1`
Criterion met

Hello, is z-score of the following molecule strictly smaller than -1? CC(C)C(NC(=O)c1ccccc1)C(=O)NC1=NCCS1 (stereo not given)
Criterion not met

Hello, is z-score of the following molecule strictly smaller than -1? `Cc1ccc(C)c(N=Cc2c(C)[nH]c3ccccc23)c1`
Criterion met

Hello, is z-score of the following molecule strictly smaller than -1? `COc1ccc(Nc2ccncc2[N+](=O)[O-])cc1`
Criterion met

Hello, is z-score of the following molecule strictly smaller than -1? CC1CC(C)CN(C(=O)c2c[nH]c3ccc(S(=O)(=O)N4CCOCC4)cc3c2=O)C1 (stereo not given)
Criterion met

Hello, is z-score of the following molecule strictly smaller than -1? `CC(C)NCCOCCOc1cccc(Br)c1`
Criterion met

Hello, is z-score of the following molecule strictly smaller than -1? `Cc1sc2c(c1C)c(=O)n(CCc1ccccc1)c(=O)n2Cc1cccc([N+](=O)[O-])c1`
Criterion not met

Hello, is z-score of the following molecule strictly smaller than -1? COc1ccccc1CNC(=O)C(C)Oc1cccc(Cl)c1 (stereo not given)
Criterion not met

Hello, is z-score of the following molecule strictly smaller than -1? `CCOc1cccc(-c2cc(C(=O)O)c3ccccc3n2)c1`
Criterion met

Hello, is z-score of the following molecule strictly smaller than -1? CSCCOC(=O)C1=C(C)NC(=O)NC1c1cccc([N+](=O)[O-])c1 (stereo not given)
Criterion not met

Hello, is z-score of the following molecule strictly smaller than -1? `COc1cccc(-n2c(SCC(=O)Nc3ccccc3F)nc3c([nH]c4ccccc43)c2=O)c1`
Criterion met

Hello, is z-score of the following molecule strictly smaller than -1? `CN(C)c1ccc(C=CC=C2SC(=S)N(Cc3ccccc3)C2=O)cc1`
Criterion met

Hello, is z-score of the following molecule strictly smaller than -1? `CCOc1cc(C(=S)N2CCCCC2)ccc1OC(=O)c1ccc(OC)cc1`
Criterion met

Hello, is z-score of the following molecule strictly smaller than -1? `Cc1ccc(S(=O)(=O)n2nc(OC(=O)c3ccc(C)c(C)c3)cc2N)cc1`
Criterion met

Hello, is z-score of the following molecule strictly smaller than -1? `COc1ccc(C(N)=NOC(=O)c2cc(Cl)ccc2Cl)cc1`
Criterion not met

Hello, is z-score of the following molecule strictly smaller than -1? O=C(NN=Cc1ccc[nH]1)C(O)c1ccccc1 (stereo not given)
Criterion not met

Hello, is z-score of the following molecule strictly smaller than -1? O=C1C2C(c3ccc([N+](=O)[O-])cc3)OC3(C(=O)c4ccccc4C3=O)C2C(=O)N1c1ccc(Cl)cc1 (stereo not given)
Criterion met

Hello, is z-score of the following molecule strictly smaller than -1? COc1ccccc1N1C(=O)C2C(C(C)=O)=NN(c3ccc(Cl)cc3)C2C1=O (stereo not given)
Criterion not met

Hello, is z-score of the following molecule strictly smaller than -1? `Cc1cc(OCCN2CCCCCC2)ccc1[N+](=O)[O-]`
Criterion met

Hello, is z-score of the following molecule strictly smaller than -1? `Cc1cc(C)c2oc(-c3ccc(C)c(N=Cc4cccc([N+](=O)[O-])c4O)c3)nc2c1`
Criterion met

Hello, is z-score of the following molecule strictly smaller than -1? CCC1CCCCN1C(=O)c1sc2ncn(Cc3ccccc3F)c(=O)c2c1C (stereo not given)
Criterion met

Hello, is z-score of the following molecule strictly smaller than -1? CCOC(=O)C1=C(N)OC2=C(C(=O)CC(C)(C)C2)C1c1ccccc1[N+](=O)[O-] (stereo not given)
Criterion not met

Hello, is z-score of the following molecule strictly smaller than -1? `O=C(CCn1c(=O)c2sccc2n(Cc2cc(=O)n3ccccc3n2)c1=O)NCc1ccc2c(c1)OCO2`
Criterion met

Hello, is z-score of the following molecule strictly smaller than -1? CC(Oc1cccc(Cl)c1)C(=O)NC1CC(C)(C)NC(C)(C)C1 (stereo not given)
Criterion not met

Hello, is z-score of the following molecule strictly smaller than -1? `O=C(NC1CCCCC1)c1nn2c(C(F)(F)F)cc(-c3ccco3)nc2c1Br`
Criterion met

Hello, is z-score of the following molecule strictly smaller than -1? `COc1ccccc1N1CCN(C(=O)NC2CCCCC2)CC1`
Criterion not met
